Here we gather Ki data for UniProt:P28190 reported by several publications.
The reply should contain only the number, in nM.

Would you please look over these solved cases?
[[record]]
compound = "Cc1cn2c(NC3CCCC3)nc(-c3ccccc3)nc2n1"
experimental_value = 41

[[record]]
compound = "COC(=O)c1cnc2c(cnn2CC(Cl)c2ccccc2)c1NCCc1ccc(C)cc1 (stereo not drawn)"
experimental_value = 15.8

[[record]]
compound = "CCCNc1nc(-c2ccccc2)nc2c1nnn2Cc1ccccc1Cl"
experimental_value = 101


Input: Quick check: Ki of Nc1nc2ccccc2c2cn(-c3ccccc3)nc12 ?
Output: 69.2

Input: Quick one: Oc1c(-c2ccccc2)nnc2nc3ccccc3n12
Output: 79.4

Input: Moving on to CCOC(=O)c1cnc2c(cnn2CC(Cl)c2ccccc2)c1NCCc1ccc(F)cc1 (stereo not drawn)
Output: 12.6

Input: Subsequent entry: O=C(Nc1nc2ccccc2n2c(=O)n(-c3ccccc3)nc12)c1ccncc1
Output: 57

----------
The following molecules were reported with pKi values on UniProt P28190 in different studies.
Recall that pKi is obtained by taking minus log10 of the concentration measured in molar.

Input: Data request, read-out pKi, for CCCn1c(=O)c2nc(C3CCCC3)[nH]c2n(C/C=C/I)c1=O
Output: 9.63

Input: Then what about the molecule Oc1cc(-c2ccccc2)nc2nc(Oc3ccccc3)ccc12 ?
Output: 7.60

Input: What about COc1ccc(-c2nnc3nc4ccccc4n3c2O)cc1OC ?
Output: 5.70

Input: Thanks! And O=[N+]([O-])c1cccc(Nc2ncnc3c2nnn3Cc2ccccc2)c1 ?
Output: 6.35

Input: How about CCn1c(-c2ccccc2)cc(=O)c2ccc(C)nc21 ?
Output: 6.30

Input: What do you get for COc1ccc(-c2nc3c(O)nc4ccc(C)cc4n3n2)cc1 ?
Output: 5.84

----------
The entries that follow carry pKi values tested on Adenosine receptor A1 (Bos taurus, UniProt P28190), drawn from several published reports.
Sequence (P28190 whole entry): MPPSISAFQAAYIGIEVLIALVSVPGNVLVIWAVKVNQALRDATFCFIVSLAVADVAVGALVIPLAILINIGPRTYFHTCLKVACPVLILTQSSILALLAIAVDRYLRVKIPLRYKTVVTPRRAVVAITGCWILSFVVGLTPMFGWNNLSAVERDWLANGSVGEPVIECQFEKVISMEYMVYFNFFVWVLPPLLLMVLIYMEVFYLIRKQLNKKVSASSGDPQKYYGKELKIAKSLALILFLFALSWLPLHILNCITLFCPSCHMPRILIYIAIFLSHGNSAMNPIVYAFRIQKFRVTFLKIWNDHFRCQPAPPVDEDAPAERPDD
pKi: −log10 of the molar value.
Rule: rule met for pKi not less than 7, rule not met for anything less.

[[record]]
compound = "Cc1ccc2c(O)c(C(=O)NCc3ccc(F)cc3)cnc2n1"
class = "rule not met"

[[record]]
compound = "C[C@H](Cc1ccccc1)Nc1ncnc2c1nnn2Cc1ccccc1"
class = "rule not met"


Input: Can Cc1ccc2c(O)c(C(=O)NN3CCOCC3)cnc2n1 be said to have pKi at or above 7?
Output: rule not met

Input: Moving on to OC[C@H]1O[C@@H](n2cnc3c(NCc4cccc(I)c4)ncnc32)[C@H](O)[C@@H]1O
Output: rule met

Input: How about O=C(NCc1ccccc1)c1cnc2ncccc2c1O ?
Output: rule not met

Input: Next: Cc1ccc2c(O)c(C(=O)NCCC(C)C)cnc2n1
Output: rule not met

----------
# merged literature set: Ki with Adenosine receptor A1 (Bos taurus, UniProt P28190)
Lab note: compare Ki with 0.2 µM, writing MET if less and NOT MET if equal or more.

// below: answered compounds
[[record]]
compound = "COC(=O)c1cnc2c(cnn2CC(Cl)c2ccccc2)c1N1CCOCC1 (stereo unspecified)"
class = "NOT MET"

[[record]]
compound = "O=c1[nH]c2ccccc2c2cn(-c3ccc(Cl)cc3)nc12"
class = "NOT MET"

[[record]]
compound = "COc1ccc(-n2cc3c(n2)c(=O)[nH]c2ccccc23)cc1"
class = "NOT MET"

[[record]]
compound = "O=C(Nc1ccccc1)Nc1nc2ccccc2n2c(=O)n(-c3ccc(Cl)cc3)nc12"
class = "MET"

[[record]]
compound = "CCOCCNc1c(C(=O)OCC)cnc2c1cnn2CC(Cl)c1ccccc1 (stereo unspecified)"
class = "MET"

[[record]]
compound = "Fc1cccc(-n2cc3c(n2)c(NC2CCCCC2)nc2ccccc23)c1"
class = "MET"


Let's switch to this compound now.
Input: In plain terms, does Cc1ccccc1-n1cc2c(n1)c(=O)[nH]c1ccccc12 come in under 0.2 µM for Ki?
Output: NOT MET

----------
pKi values for Adenosine receptor A1 (Bos taurus) compiled from several publications are listed below.
For clarity, pKi is expressed as the negative log10 of concentration in mol/L.

[[record]]
compound = "CC(Cc1ccccc1)Nc1ncnc2c1nnn2Cc1ccccc1Cl (stereo not drawn)"
measured_attribute = "pKi"
experimental_value = 7.14

[[record]]
compound = "CCCNc1c(C(=O)OC(C)C)cnc2c1cnn2CC(Cl)c1ccccc1 (stereo not drawn)"
measured_attribute = "pKi"
experimental_value = 7.70

[[record]]
compound = "CNc1nc(-c2ccccc2)nc2c1nnn2Cc1ccccc1C(F)(F)F"
measured_attribute = "pKi"
experimental_value = 7.83


Input: Give its pKi value. Item: Nc1nc2ncccc2n2c(=O)n(-c3ccc(F)cc3)nc12
Output: 6.74

Input: Entry to check: COc1ccc(-n2nc3c(NC(=O)C(c4ccccc4)c4ccccc4)nc4c(N)cccc4n3c2=O)cc1
Output: 7.11

----------
Hi, quick share: literature Ki data for Adenosine receptor A1 (Bos taurus), several sources combined.
Criterion: Ki strictly under 40 nM. Met: Condition met. Not met: Condition not met.

Some solved cases for reference:
[[record]]
compound = "O=C(NCc1ccccc1)c1cnc2nc(NC3CCCCC3)ccc2c1O"
class = "Condition not met"

[[record]]
compound = "O=C(Nc1nc2c([N+](=O)[O-])cccc2n2c(=O)n(-c3ccccc3)nc12)C(c1ccccc1)c1ccccc1"
class = "Condition met"

[[record]]
compound = "CCCCOC(=O)c1cnc2c(cnn2CC(Cl)c2ccccc2)c1NC1CC1 (stereo not drawn)"
class = "Condition not met"

[[record]]
compound = "Cc1cn2c(NCc3ccccc3)nc(-c3ccccc3)nc2n1"
class = "Condition not met"

[[record]]
compound = "CCCn1c(=O)n(C)c(=O)c2[nH]c(C3CCCC3)nc21"
class = "Condition met"


Please turn your attention to the following entry.
Input: Decide: Ki of CC(=O)N(C(C)=O)c1ccc(CNC(=O)c2cnc3nc(C)ccc3c2O)cc1 strictly below 40 nM?
Output: Condition not met

----------
Study the reported pKi values for Adenosine receptor A1 (Bos taurus) given below; they originate from different publications.
# reply with the number alone; pKi is -log10 of concentration in mol/L

Input: // pKi lookup, key: Cc1ccc2c(N)cc(-c3ccccc3)nc2n1
Output: 7.80

Input: Next record, please: CCCc1cc(O)c2ccc(N)nc2n1
Output: 6.70

Input: Again, but for c1ccc(Nc2[nH]c3ccccc3c3nc(-c4ccccc4)nc2-3)cc1
Output: 7.30

Input: Subsequent entry: CCCn1c(=O)n(CC(C)F)c(=O)c2[nH]c(C3CCCC3)nc21 (centres undefined)
Output: 8.91

Input: Would you mind doing COc1ccc(-n2nc3c(NC(=O)c4ccccc4)nc4ncccc4n3c2=O)cc1 as well?
Output: 6.45

Input: // query: c1ccc(CCNc2nc3ccccc3c3cn(-c4ccccc4)nc23)cc1
Output: 7.22

----------
Published Ki for Adenosine receptor A1 (Bos taurus, UniProt P28190), assembled from different documents, is shown next.
// return numeric value only (unit: nM, not printed)

[[record]]
molecular_string = "O=c1[nH]nc2c(NCCc3ccccc3)nc3ccccc3n12"
experimental_value = 5.01


Input: Which value of Ki has been reported for Fc1cccc(-n2cc3c(n2)c(NC2CCCC2)nc2ccccc23)c1 in the records?
Output: 9.3

Input: Entry to check: Cc1ccc2c(O)c(C(=O)NCCc3ccccc3)cnc2n1
Output: 680

Input: Ok, now OCCNc1nc(-c2ccccc2)nc2c1nnn2Cc1ccccc1Cl
Output: 116

----------
A compilation of Ki values for Adenosine receptor A1 (Bos taurus) from the published literature.
Numbers only; they are read as nM.

Previously resolved entries follow.
[[record]]
molecule = "COC(=O)c1ccc(C(=O)Nc2nc3ccccc3n3c(=O)n(-c4ccccc4)nc23)cc1"
assay_target = "Adenosine receptor A1 (Bos taurus)"
experimental_value = 106

[[record]]
molecule = "Cc1ccc(CCNc2c(C(=O)OC(C)C)cnc3c2cnn3CC(Cl)c2ccccc2)cc1 (stereo not drawn)"
assay_target = "Adenosine receptor A1 (Bos taurus)"
experimental_value = 50.1

[[record]]
molecule = "Nc1ccc2c(O)c(C(=O)NCc3ccc(Cl)cc3)cnc2n1"
assay_target = "Adenosine receptor A1 (Bos taurus)"
experimental_value = 4490

[[record]]
molecule = "C[C@H](Cc1ccccc1)Nc1ncnc2c1ncn2[C@@H]1O[C@H](CO)[C@@H](O)[C@@]1(C)O"
assay_target = "Adenosine receptor A1 (Bos taurus)"
experimental_value = 4.7

[[record]]
molecule = "C[C@@]1(O)[C@@H](CO)O[C@@H](n2cnc3c(NCc4cccc(I)c4)nc(Cl)nc32)[C@@H]1O"
assay_target = "Adenosine receptor A1 (Bos taurus)"
experimental_value = 4300


Input: Any idea what its Ki is? The molecule is O=C(OCc1ccccc1)c1nc2c(O)nc3ccccc3n2n1
Output: 3220

Input: Cool, now Cc1cccc(-n2cc3c(n2)c(NC2CCCCC2)nc2ccccc23)c1
Output: 22.2

Input: Note, next up: Cc1ccc2c(O)c(C(=O)NCc3ccccc3)cnc2n1
Output: 280

Input: Another: COc1cc(-c2ccccc2)nc2nc(C)ccc12
Output: 6310

Input: What do you have for Cc1cn2c(NC(=O)C3CCCCC3)nc(-c3ccccc3)nc2n1 ?
Output: 116

Input: Same lookup for CCCn1c(=O)c2nc(C3CCCC3)[nH]c2n(CCC[18F])c1=O , please.
Output: 0.18

Input: Another molecule to look at: c1ccc(Cn2nnc3c(NC4CCCCC4)ncnc32)cc1
Output: 121

Input: Please give the result for CNc1nc(-c2ccccc2)nc2c1nnn2Cc1ccccc1F too.
Output: 25

Input: And then CS(=O)(=O)Nc1nc2c([N+](=O)[O-])cccc2n2c(=O)n(-c3ccccc3)nc12 , what is it?
Output: 2840

Input: Lookup CCCn1c(=O)[nH]c2nc(C3CCCC3)n(C)c2c1=O
Output: 149
